Test system: MDA-MB-231 breast
assayRemarks: NCI tumour cell line growth inhibition, 48 h; in the data active = GI50 below about 0.43 µM; inactive = the rest
Pick one and only one: 1 (yes) for active, 0 (no) for inactive

Query: Outcome? Nc1c(C(=O)Nc2cccc(Cl)c2)sc2nc3c(cc12)C(O)CCC3 (stereo not drawn)
Result: 0 (no)

Query: Quick one: `Cc1cc(S(=O)(=O)Nc2nc3ccccc3c(=O)n2Cc2ccco2)c(S)cc1Cl`
Result: 0 (no)

Query: Same for `CC1(C)CC[C@]23CC[C@]4(C)[C@H](CC[C@@H]5[C@@]6(C)CCCNC(C)(C)[C@@H]6CC[C@]54C)[C@H]2[C@H]1OC3`
Result: 0 (no)

Query: Then what about the compound `O=C1NC(=Nc2ccc(O)cc2)S/C1=C\c1cccs1` ?
Result: 0 (no)

Query: What about this compound? `CCCCCCCCCCCCCCCC(=O)NS(=O)(=O)OC[C@H]1O[C@@H](n2cnc3c(N)ncnc32)[C@H](O)[C@@H]1O`
Result: 1 (yes)

Query: Similarly, `CCOC(=O)c1c(C)n([O-])c2cc(F)c(F)cc2[n+]1=O` ?
Result: 0 (no)

Query: Moving on to COC(=O)C1C(C(=O)O)C2(c3ccccc3)C(=O)C1(c1ccccc1)C(c1ccc(OC)cc1)=C2c1ccc(OC)cc1 (stereo not drawn)
Result: 0 (no)

Query: How about `COc1ccc2[nH]c(C(=O)OCc3ccc4c(Br)cc(Br)c(O)c4n3)cc2c1` ?
Result: 0 (no)

Query: Request: `CCN1CCN(Cc2ccc(NC(=O)Nc3nc(-c4cc(OC)c(OC)c(OC)c4)cs3)cc2C(F)(F)F)CC1`
Result: 0 (no)

Query: Cool, now `CS(=O)(=O)N1CCC(Nc2ncc(C(=O)c3c(F)cccc3F)c(N)n2)CC1`
Result: 0 (no)

Query: Continue with `COC(=O)CN1Cc2cc(C)cc(c2O)CN(CC(=O)OC)Cc2cc(C)cc(c2O)CN(CC(=O)OC)Cc2cc(C)cc(c2O)CN(CC(=O)OC)Cc2cc(C)cc(c2O)C1`
Result: 0 (no)

Query: Similarly, `CS(=O)(=O)Nc1cc(-c2ccc3ncc(C#N)c(Nc4ccc(F)c(Cl)c4)c3c2)cnc1Cl` ?
Result: 1 (yes)

Query: And for Nc1nc2ccc(CNc3ccc(C(=O)NC(CC(=O)O)C(=O)O)cc3)cc2c(=O)[nH]1 (stereo not drawn) ?
Result: 0 (no)
